readoutType: melting point

Request: # input molecule: CCNC(=O)c1cn(Cc2ccc(-c3noc(C(F)(F)F)n3)cc2)nn1 [Compound 1.274] ; wanted: its melting point
Result: 193 to 195 °C

Request: # input molecule: CC(C)OC(=O)c1cn(Cc2ccc(-c3noc(C(F)(F)F)n3)cc2)nn1 [Compound 1.278] ; wanted: its melting point
Result: 146 to 148 °C

Request: # input molecule: CNC(=O)c1cnn(Cc2ccc(-c3noc(C(F)(F)F)n3)cc2)c1 [Compound 1.150] ; wanted: its melting point
Result: 156 to 161 °C

Request: # input molecule: FC(F)(F)c1nc(-c2ccc(Cn3cc(-c4ccsc4)nn3)cc2)no1 [Compound 1.8] ; wanted: its melting point
Result: 160.2 to 163.9 °C

Request: # input molecule: C[S+]([O-])c1ncnn1Cc1ccc(-c2noc(C(F)(F)F)n2)cc1 (stereo not drawn) [Compound 1.295] ; wanted: its melting point
Result: 71.2 to 73.7 °C

Request: # input molecule: FC(F)(F)c1nc(-c2ccc(Cn3nnc4ccccc43)cc2)no1 [Compound 1.35] ; wanted: its melting point
Result: 142.3 to 143.2 °C

Request: # input molecule: CC(=O)OCc1cn(Cc2ccc(-c3noc(C(F)(F)F)n3)cc2)nn1 [Compound 1.7] ; wanted: its melting point
Result: 157.4 to 160.4 °C

Request: # input molecule: Cn1cncc1-c1cn(Cc2ccc(-c3noc(C(F)(F)F)n3)cc2)nn1 [Compound 1.6] ; wanted: its melting point
Result: 108.7 to 110.3 °C

Request: # input molecule: FC(F)(F)c1nc(-c2ccc(Cn3cncn3)c(Cl)c2)no1 [Compound 1.99] ; wanted: its melting point
Result: 63 to 71 °C

Request: # input molecule: COC(=O)c1cn(Cc2ccc(-c3noc(C(F)(F)F)n3)cc2)nn1 [Compound 1.270] ; wanted: its melting point
Result: 154 to 156 °C

Request: # input molecule: FC(F)(F)c1nc(-c2ccc(Cn3cc(C4CC4)nn3)cc2)no1 [Compound 1.5] ; wanted: its melting point
Result: 115.5 to 117.2 °C

Request: # input molecule: CCOC(=O)c1cnn(CC(F)c2ccc(-c3noc(C(F)(F)F)n3)cc2)c1 (stereo not drawn) [Compound 1.311] ; wanted: its melting point
Result: 145 to 147 °C

Request: # input molecule: CCOC(=O)c1cn(Cc2ccc(-c3noc(C(F)(F)F)n3)cc2)nn1 [Compound 1.276] ; wanted: its melting point
Result: 134 to 136 °C

Request: # input molecule: CSc1ncnn1Cc1ccc(-c2noc(C(F)(F)F)n2)cc1 [Compound 1.298] ; wanted: its melting point
Result: 72 to 73.2 °C

Request: # input molecule: CS(=O)(=O)c1ncnn1Cc1ccc(-c2noc(C(F)(F)F)n2)cc1 [Compound 1.294] ; wanted: its melting point
Result: 119.2 to 119.8 °C

Request: # input molecule: C#CCON=Cc1cnn(Cc2ccc(-c3noc(C(F)(F)F)n3)cc2)c1 [Compound 1.290] ; wanted: its melting point
Result: 57 to 63 °C

Request: # input molecule: COc1cc(-c2noc(C(F)(F)F)n2)ccc1Cn1cncn1 [Compound 1.97] ; wanted: its melting point
Result: 102 to 106 °C

Request: # input molecule: CC(C)(NC(=O)c1ccccc1)c1cn(Cc2ccc(-c3noc(C(F)(F)F)n3)cc2)nn1 [Compound 1.30] ; wanted: its melting point
Result: 157.6 to 161.9 °C
